Source: ChEMBL document CHEMBL3272128

Activity values by entry
- Test system: P388
- assay.method.text: Antileukemic activity against mouse P388 cells allografted in male CDF1 mouse assessed as change in body weight at 12.5 mg/kg, ip using hydroxypropylcellulose suspension total 9 daily doses started 24 hrs after tumor inoculation
- Type: functional
- condition.info: route intraperitoneal
measured.attribute: Activity (g)

INSERT INTO assay_data (compound, display_unit, measured) VALUES
  ('CCOc1ccc(-n2c(C)c(COC(=O)NC)c(COC(=O)NC)c2C)cc1', 'g', -3),
  ('CNC(=O)OCc1c(COC(=O)NC)c(C)n(-c2ccccc2)c1C', 'g', -1.3),
  ('CCCCc1ccc(-n2c(C)c(COC(=O)NC)c(COC(=O)NC)c2C)cc1', 'g', -3.1),
  ('CNC(=O)OCc1c(COC(=O)NC)c(C)n(-c2ccc(F)cc2)c1C', 'g', -2.6),
  ('CNC(=O)OCc1c(COC(=O)NC)c(C)n(-c2ccc(C)cc2)c1C', 'g', -2.5),
  ('CNC(=O)OCc1c(COC(=O)NC)c(C)n(-c2ccc(OC)cc2)c1C', 'g', -2.6),
  ('COc1ccc(-n2c(C)c(COC(C)=O)c(COC(C)=O)c2C)cc1', 'g', -1.6),
  ('CNC(=O)OCc1c(COC(=O)NC)c(C)n(-c2ccc3c(c2)OCO3)c1C', 'g', -1.1),
  ('CNC(=O)OCc1c(COC(=O)NC)c(C)n(-c2ccc(Br)cc2)c1C', 'g', -2);
